# EXPERIMENTAL_TARGET: Monoglyceride lipase (Homo sapiens) (UniProt Q99685)
# Sequence (Q99685 whole entry): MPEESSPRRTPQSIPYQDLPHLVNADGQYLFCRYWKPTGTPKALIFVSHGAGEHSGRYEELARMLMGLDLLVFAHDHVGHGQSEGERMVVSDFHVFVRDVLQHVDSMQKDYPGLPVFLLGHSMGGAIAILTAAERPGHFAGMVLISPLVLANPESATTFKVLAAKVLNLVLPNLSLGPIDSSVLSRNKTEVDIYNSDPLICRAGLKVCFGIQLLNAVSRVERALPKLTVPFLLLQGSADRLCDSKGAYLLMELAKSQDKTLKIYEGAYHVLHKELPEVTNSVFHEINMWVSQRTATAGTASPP
# ASSAY_REMARKS: Ratio of Kinact to Ki for human recombinant MAGL using 7-HCA as substrate after 60 mins by fluorescence assay
Ratio less than 300000 M⁻¹ s⁻¹ is rule met; Ratio greater than or equal to 300000 M⁻¹ s⁻¹ is rule not met.

(Q) Threshold test, Ratio < 300000 M⁻¹ s⁻¹: O=C(OC(C(F)(F)F)C(F)(F)F)N1CC(c2nc(-c3ccccc3)no2)C1
(A) rule not met

(Q) Threshold test, Ratio < 300000 M⁻¹ s⁻¹: Cn1ccc(C2CN(C(=O)OC(C(F)(F)F)C(F)(F)F)C2)n1
(A) rule met

(Q) Threshold test, Ratio < 300000 M⁻¹ s⁻¹: O=C(OC(C(F)(F)F)C(F)(F)F)N1CC(c2ccn(Cc3ccccc3)n2)C1
(A) rule not met

(Q) Threshold test, Ratio < 300000 M⁻¹ s⁻¹: O=C(OC(C(F)(F)F)C(F)(F)F)N1CC(N2CCN(c3ncccn3)CC2)C1
(A) rule met

###

Listing of entries alongside the reported pIC50.
# EXPERIMENTAL_TARGET: Fatty-acid amide hydrolase 1 (Homo sapiens)
# Sequence (O00519 whole entry): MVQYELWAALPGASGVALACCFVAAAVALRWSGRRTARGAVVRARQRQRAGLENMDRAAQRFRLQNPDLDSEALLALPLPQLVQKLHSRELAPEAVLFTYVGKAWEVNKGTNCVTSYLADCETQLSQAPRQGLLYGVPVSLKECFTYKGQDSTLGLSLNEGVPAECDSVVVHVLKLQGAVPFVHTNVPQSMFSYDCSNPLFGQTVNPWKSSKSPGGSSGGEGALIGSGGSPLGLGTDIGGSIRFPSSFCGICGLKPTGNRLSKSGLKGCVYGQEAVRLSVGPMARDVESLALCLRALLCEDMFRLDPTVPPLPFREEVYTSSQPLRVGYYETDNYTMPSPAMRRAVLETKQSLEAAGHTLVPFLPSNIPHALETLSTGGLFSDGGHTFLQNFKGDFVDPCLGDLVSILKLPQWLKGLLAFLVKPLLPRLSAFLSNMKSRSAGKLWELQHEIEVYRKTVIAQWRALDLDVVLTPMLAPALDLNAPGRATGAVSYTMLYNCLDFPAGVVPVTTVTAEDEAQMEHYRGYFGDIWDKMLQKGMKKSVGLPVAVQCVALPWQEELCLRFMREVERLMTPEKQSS
# ASSAY_REMARKS: Inhibition of human recombinant FAAH using arachidonoyl-AMC as substrate preincubated for 30 mins followed by substrate addition measured after 60 mins by fluorescence assay
Hey, just a heads up that pIC50 is the negative log base 10 of the concentration in molar.

O=C(OC(C(F)(F)F)C(F)(F)F)N1CC(c2nc(-c3ccccc3)no2)C1 6.38
O=C(OC(C(F)(F)F)C(F)(F)F)N1CC(c2ccn(C3CCOCC3)n2)C1 5.03
O=C(OC(C(F)(F)F)C(F)(F)F)N1CC(N2CCN(c3ncccn3)CC2)C1 5.60

Let us move to another entry and its pIC50.
(Q) Name the recorded pIC50 for O=C(OC(C(F)(F)F)C(F)(F)F)N1CC(c2cc(-c3ccccc3)n(-c3ccccc3)n2)C1 .
(A) 6.31

###

# ASSAY_REMARKS: Ratio of unbound drug level in C57Bl6 mouse brain to plasma at 1 to 10 mg/kg, sc
# Format: ADME, organism-based
PROPERTY_LABEL: Kp uu
Simply state the number, no unit and no words.

(Q) Name the recorded Kp uu for O=C(OC(C(F)(F)F)C(F)(F)F)N1CCC(c2ccn(-c3ccccc3)n2)CC1 .
(A) 0.5

###

# ASSAY_REMARKS: Ratio of unbound drug level in C57Bl6 mouse brain to plasma at 10 mg/kg, sc
# Type: ADME, organism-based
PROPERTY_LABEL: Kp uu
Simply state the number, no unit and no words.

(Q) Name the recorded Kp uu for O=C(OC(C(F)(F)F)C(F)(F)F)N1CC(c2ccn(-c3ccccc3)n2)C1 .
(A) 0.6

###

# ASSAY_REMARKS: Cmax in C57Bl6 mouse brain at 1 mg/kg, sc
# Assay type: ADME, organism-based
# Parameters: dose 1 mg/kg, route subcutaneous
PROPERTY_LABEL: Cmax (nM)
Reply with just the number (in nM).

(Q) Name the recorded Cmax for O=C(OC(C(F)(F)F)C(F)(F)F)N1CCC(c2ccn(-c3ccccc3)n2)CC1 .
(A) 0.14

###

Listing of entries alongside the reported Ratio.
# EXPERIMENTAL_TARGET: UniProtKB Q99685
# ASSAY_REMARKS: Ratio of Kinact to Ki for human recombinant MAGL using 7-HCA as substrate after 60 mins by fluorescence assay
Note: a bare number is incomplete; add the unit.

O=C(OC(C(F)(F)F)C(F)(F)F)N1CC(c2ccn(-c3cnccn3)n2)C1 329000 M⁻¹ s⁻¹

(Q) Name the recorded Ratio for O=C(OC(C(F)(F)F)C(F)(F)F)N1CC(c2ccn(C3CCOCC3)n2)C1 .
(A) 102000 M⁻¹ s⁻¹

###

# ASSAY_REMARKS: Lipophilicity, log D of the compound
# Type: physicochemical
# ASSAY_SETUP: octanol/water
Listing of entries alongside the reported logD.
Simply state the number, no unit and no words.

O=C(OC(C(F)(F)F)C(F)(F)F)N1CC(c2ccn(-c3ccc(F)c(F)c3)n2)C1 4.6
O=C(OC(C(F)(F)F)C(F)(F)F)N1CC(N2CCN(c3ncccn3)CC2)C1 2.9
Cn1ccc(C2CN(C(=O)OC(C(F)(F)F)C(F)(F)F)C2)n1 2.4
O=C(OC(C(F)(F)F)C(F)(F)F)N1CC(c2ccn(-c3cnccn3)n2)C1 2.8
O=C(OC(C(F)(F)F)C(F)(F)F)N1CC(c2cc(-c3ccccc3)n(-c3ccccc3)n2)C1 5.7
O=C(OC(C(F)(F)F)C(F)(F)F)N1CC(c2ccn(C3CCOCC3)n2)C1 3.2
O=C(OC(C(F)(F)F)C(F)(F)F)N1CC(c2ccn(-c3ccccc3)n2)C1 4.3
O=C(OC(C(F)(F)F)C(F)(F)F)N1CC(c2ccnc(N3CCOCC3)n2)C1 3

(Q) Name the recorded logD for O=C(OC(C(F)(F)F)C(F)(F)F)N1CC(c2ccn(Cc3ccccc3)n2)C1 .
(A) 4.4

(Q) Name the recorded logD for O=C(OC(C(F)(F)F)C(F)(F)F)N1CC(c2nc(-c3ccccc3)no2)C1 .
(A) 4.2

###

Listing of entries alongside the reported log10(IC50).
# EXPERIMENTAL_TARGET: Monoglyceride lipase (Homo sapiens, UniProt Q99685)
# ASSAY_REMARKS: Inhibition of human recombinant MAGL using 7-HCA as substrate preincubated for 30 mins followed by substrate addition measured after 60 mins by fluorescence assay
Remember, log10 of IC50, in nM.

Cn1ccc(C2CN(C(=O)OC(C(F)(F)F)C(F)(F)F)C2)n1 1.59
O=C(OC(C(F)(F)F)C(F)(F)F)N1CC(c2cc(-c3ccccc3)n(-c3ccccc3)n2)C1 -0.52
O=C(OC(C(F)(F)F)C(F)(F)F)N1CC(c2ccn(Cc3ccccc3)n2)C1 -0.39
O=C(OC(C(F)(F)F)C(F)(F)F)N1CC(c2nc(-c3ccccc3)no2)C1 -0.42
O=C(OC(C(F)(F)F)C(F)(F)F)N1CCC(c2ccn(-c3ccccc3)n2)CC1 0.30

(Q) Name the recorded log10(IC50) for O=C(OC(C(F)(F)F)C(F)(F)F)N1CC(c2ccnc(N3CCOCC3)n2)C1 .
(A) 0.28

(Q) Name the recorded log10(IC50) for O=C(OC(C(F)(F)F)C(F)(F)F)N1CC(c2ccn(C3CCOCC3)n2)C1 .
(A) 0.28

(Q) Name the recorded log10(IC50) for O=C(OC(C(F)(F)F)C(F)(F)F)N1CC(N2CCN(c3ncccn3)CC2)C1 .
(A) 0.51

(Q) Name the recorded log10(IC50) for O=C(OC(C(F)(F)F)C(F)(F)F)N1CC(c2ccn(-c3ccc(F)c(F)c3)n2)C1 .
(A) -0.74

(Q) Name the recorded log10(IC50) for O=C(OC(C(F)(F)F)C(F)(F)F)N1CC(c2ccn(-c3ccccc3)n2)C1 .
(A) -0.74

(Q) Name the recorded log10(IC50) for O=C(OC(C(F)(F)F)C(F)(F)F)N1CC(c2ccn(-c3cnccn3)n2)C1 .
(A) -0.13

###

# ASSAY_REMARKS: Tmax in C57Bl6 mouse at 10 mg/kg, sc
# Type: ADME, organism-based
# ASSAY_SETUP: in vivo
PROPERTY_LABEL: Tmax (min)
Reply with just the number (in min).

(Q) Name the recorded Tmax for O=C(OC(C(F)(F)F)C(F)(F)F)N1CC(c2ccn(-c3ccccc3)n2)C1 .
(A) 30

###

# EXPERIMENTAL_TARGET: CES1 (liver carboxylesterase 1) (Homo sapiens, UniProt P23141)
# Sequence (P23141 whole entry): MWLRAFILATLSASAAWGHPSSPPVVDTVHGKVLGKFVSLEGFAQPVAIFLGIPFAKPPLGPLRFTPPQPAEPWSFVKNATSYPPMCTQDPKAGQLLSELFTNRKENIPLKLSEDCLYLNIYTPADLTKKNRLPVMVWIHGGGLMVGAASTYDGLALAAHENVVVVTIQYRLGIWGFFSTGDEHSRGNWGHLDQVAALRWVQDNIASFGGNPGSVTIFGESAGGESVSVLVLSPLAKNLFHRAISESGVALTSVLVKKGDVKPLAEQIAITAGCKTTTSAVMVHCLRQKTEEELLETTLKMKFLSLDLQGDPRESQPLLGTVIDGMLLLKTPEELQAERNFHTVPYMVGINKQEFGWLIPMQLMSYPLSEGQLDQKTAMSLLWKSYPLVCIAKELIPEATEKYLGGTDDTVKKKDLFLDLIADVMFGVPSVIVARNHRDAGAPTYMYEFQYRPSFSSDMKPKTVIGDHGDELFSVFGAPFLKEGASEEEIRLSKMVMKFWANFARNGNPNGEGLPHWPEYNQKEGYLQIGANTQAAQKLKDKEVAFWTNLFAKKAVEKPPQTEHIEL
# ASSAY_REMARKS: Inhibition of human CES1 at 10 uM relative to control
PROPERTY_LABEL: inhibition at 10 µM

(Q) Tell me reported inhibition at 10 µM for O=C(OC(C(F)(F)F)C(F)(F)F)N1CCC(c2ccn(-c3ccccc3)n2)CC1 , tested with CES1 (liver carboxylesterase 1) (Homo sapiens, UniProt P23141).
(A) > 70%
